target: MyD88^TIR (Homo sapiens, UniProt Q99836); construct: MyD88 (residues 148–296); 6xHis; made in house; host or cells: E. coli BL21 (DE3); assay: T‐Surf phage library (P8 and P3) selection against MyD88^TIR, four rounds, NGS read counts; type: binding; settings: P3 library, selection against MyD88 TIR; rank by count after grouping
Sequence (Q99836 148-296): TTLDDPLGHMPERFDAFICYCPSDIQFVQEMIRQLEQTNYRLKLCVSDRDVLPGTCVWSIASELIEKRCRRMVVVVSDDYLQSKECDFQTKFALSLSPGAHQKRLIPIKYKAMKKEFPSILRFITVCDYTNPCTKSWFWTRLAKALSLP
Quick reference for P3_MyD88 Rank (after) among some sequences

Request: Recorded P3_MyD88 Rank (after) of EWSREQLRPALKESLP , please.
Result: 239

Request: Recorded P3_MyD88 Rank (after) of SENYATSPWALTELVH , please.
Result: 278

Request: Recorded P3_MyD88 Rank (after) of YALTCHLHRYLVQRGV , please.
Result: 204

---
Request: Recorded P3_MyD88 Rank (after) of YYLDTSHHRKQSGEFG , please.
Result: 246

Request: Recorded P3_MyD88 Rank (after) of YLKWAIRGFGIVCVL , please.
Result: 238

Request: Recorded P3_MyD88 Rank (after) of ERLFIETQNVNKDLIG , please.
Result: 264

Request: Recorded P3_MyD88 Rank (after) of SENYATSAWALEELVL , please.
Result: 214

Request: Recorded P3_MyD88 Rank (after) of QEVEGWRDALTKVASM , please.
Result: 226

Request: Recorded P3_MyD88 Rank (after) of YTALTNSSFHTFLDND , please.
Result: 219

Request: Recorded P3_MyD88 Rank (after) of NQWRNAQTAAANLNGW , please.
Result: 256

Request: Recorded P3_MyD88 Rank (after) of GEDTRYTFTGHLHRYLVQRGV , please.
Result: 240

Request: Recorded P3_MyD88 Rank (after) of NQQRFGGKVDAWKAAL , please.
Result: 281

----------
Molecular target: MyD88^TIR (Homo sapiens)
Construct: MyD88 (residues 148–296); 6xHis; made in house; host or cells: E. coli BL21 (DE3)
Assay: T‐Surf phage library (P8 and P3) selection against MyD88^TIR, four rounds, NGS read counts
Type: binding
Conditions: P8_MyD88: rank by NGS read count after grouping
Experimental: T‐Surf libraries were screened against the immobilized TIR domains of two major human TLR adaptor proteins, MAL^TIR and MyD88^TIR, allowing cross‐species selection of TIR‐binding motifs with 190 946 TIR‐derived peptides in a single binding assay (Scheme 1). Enriched phage pools from the fourth round of selection were analyzed using NGS after barcoding the peptide‐coding regions of the phage pools. […]
Quick reference for Rank (after) among some sequences
// response body must contain only the number

Request: Recorded Rank (after) of CARDELLQILHARELF , please.
Result: 876

---
Request: Recorded Rank (after) of LGYQWIAGEYFVGIED , please.
Result: 1021

Request: Recorded Rank (after) of DWVWEYLLPNVERPEG , please.
Result: 880

Request: Recorded Rank (after) of LGYHWEYWVYFVGIED , please.
Result: 1000

Request: Recorded Rank (after) of DPQLLVCFYERVVRMF , please.
Result: 1010

Request: Recorded Rank (after) of WDFGTAGKNPGSAWHH , please.
Result: 910

Request: Recorded Rank (after) of SADYDDVGDRLIRMIE , please.
Result: 1024

Request: Recorded Rank (after) of DPQDLDCYYERLVSLF , please.
Result: 1004

Request: Recorded Rank (after) of DFSHFWLFEAGGDAD , please.
Result: 946

Request: Recorded Rank (after) of DWVCDYLLPDREGPAG , please.
Result: 984

Request: Recorded Rank (after) of WALNELQKILNAKETI , please.
Result: 900

Request: Recorded Rank (after) of DPQDLVWFYKRLFSQM , please.
Result: 977

Request: Recorded Rank (after) of VTSSWALEELRHIMEL , please.
Result: 947

Request: Recorded Rank (after) of WALDELLQILHPRELV , please.
Result: 981

Request: Recorded Rank (after) of YSQHDVLWVKNFLSHI , please.
Result: 1025

Request: Recorded Rank (after) of DFLKWDNEAIMIKKIA , please.
Result: 993

Request: Recorded Rank (after) of IDDHHLTFLVSLLLSL , please.
Result: 975

Request: Recorded Rank (after) of DPQDLECVYERLVSLF , please.
Result: 1006

Request: Recorded Rank (after) of DSLFWDRLLYSLQFTE , please.
Result: 933

Request: Recorded Rank (after) of DPQDLEWNFERPVSLF , please.
Result: 972

Request: Recorded Rank (after) of PQAPEWSYERLVSLIL , please.
Result: 954

----------
target: MAL^TIR (Homo sapiens); construct: MAL (residues 79–221); 6xHis; made in house; host or cells: E. coli BL21 (DE3); experiment: T‐Surf phage library (P8 and P3) selection against MAL^TIR, four rounds, NGS read counts; type: binding; conditions: P8 library, selection against MAL TIR; rank by count after grouping
Sequence (P58753 79-221): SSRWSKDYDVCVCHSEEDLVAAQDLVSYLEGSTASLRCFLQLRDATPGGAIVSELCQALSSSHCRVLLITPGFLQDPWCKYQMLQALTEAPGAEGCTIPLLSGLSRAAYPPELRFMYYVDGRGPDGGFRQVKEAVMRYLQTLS
Quick reference for P8_MAL Rank (after) among some sequences
// response body must contain only the number

Request: Recorded P8_MAL Rank (after) of RNNFIGHQYQALYRSR , please.
Result: 235

Request: Recorded P8_MAL Rank (after) of RNFVAYLFQALADKGV , please.
Result: 273

Request: Recorded P8_MAL Rank (after) of ARFKDMIINKWRTALT , please.
Result: 195

---
Request: Recorded P8_MAL Rank (after) of SFLYTLLSNLTHPTNF , please.
Result: 265

Request: Recorded P8_MAL Rank (after) of GFYERQVSLVLGDTKV , please.
Result: 281

Request: Recorded P8_MAL Rank (after) of LFLWESLKHLLRSDGR , please.
Result: 232

Request: Recorded P8_MAL Rank (after) of AFLYTFLINPTHPTNS , please.
Result: 255

Request: Recorded P8_MAL Rank (after) of YLLLSVFQTIFARRTE , please.
Result: 238

Request: Recorded P8_MAL Rank (after) of RSFVASLFQALANKGI , please.
Result: 240

----------
Target: MyD88^TIR (Homo sapiens, UniProt Q99836)
Construct: MyD88 (residues 148–296); 6xHis; made in house; host or cells: E. coli BL21 (DE3)
Test: T‐Surf phage library (P8 and P3) selection against MyD88^TIR, four rounds, NGS read counts
Format: binding
Settings: P8_MyD88: rank by NGS read count before grouping
Description: T‐Surf libraries were screened against the immobilized TIR domains of two major human TLR adaptor proteins, MAL^TIR and MyD88^TIR, allowing cross‐species selection of TIR‐binding motifs with 190 946 TIR‐derived peptides in a single binding assay (Scheme 1). Enriched phage pools from the fourth round of selection were analyzed using NGS after barcoding the peptide‐coding regions of the phage pools. […]
Quick reference for Rank (before) among some sequences
// response body must contain only the number

// below: answered sequences
Request: Recorded Rank (before) of LGYYWNDWEYVVGIEE , please.
Result: 3218

Request: Recorded Rank (before) of YASSSWALDELWLILEQR , please.
Result: 1883

Request: Recorded Rank (before) of EPQDLDWLYERLVSLF , please.
Result: 3148

---
Request: Recorded Rank (before) of FISDLYEALTRAGILA , please.
Result: 1341

Request: Recorded Rank (before) of DPQDLVWFYERPVSIF , please.
Result: 2712

Request: Recorded Rank (before) of YPQDLEWLYERLVSPV , please.
Result: 2099

----------
Quick reference for Rank (after) among some sequences
molecular target: MyD88^TIR (Homo sapiens); construct: MyD88 (residues 148–296); 6xHis; made in house; host or cells: E. coli BL21 (DE3); test: T‐Surf phage library (P8 and P3) selection against MyD88^TIR, four rounds, NGS read counts; assay type: binding; conditions: P3_MyD88: rank by count after grouping
// response body must contain only the number

Request: Recorded Rank (after) of NQWRNALTATANLSGC , please.
Result: 419

Request: Recorded Rank (after) of RERPVGAQRGVRSLAT , please.
Result: 469

Request: Recorded Rank (after) of RLLKWKEALHQFHSW , please.
Result: 130

Request: Recorded Rank (after) of EIVKFVLAKLVHLEHP , please.
Result: 409

Request: Recorded Rank (after) of YAFTGHPPRYLVQRGV , please.
Result: 433

Request: Recorded Rank (after) of NQWRNALTAAAYMSCR , please.
Result: 463

Request: Recorded Rank (after) of LVAHQISKTIKIFATI , please.
Result: 389

Request: Recorded Rank (after) of EWMREQLRPPLKERLP , please.
Result: 421

---
Request: Recorded Rank (after) of PVAHDLSKKMKIFATI , please.
Result: 474

FYI, the data here is from paper PMC11714206.
